assay: in vivo; settings: SD, rat, iv, 1 mg/kg
readout_name: Cmax (ng/mL)
Your answer should be a plain number; it is taken to be in ng/mL.

Qu. In one line, give reported Cmax of the entry "CC#Cc1cc(CN2CC=C(c3ccc(C(=O)NC)nc3F)CC2)cc2[nH]c(=O)c(C)nc12" .
Ans. 897

* * *

target: UniProtKB P09874; assay: Inhibition of PARP1 enzyme activity (ELISA, chemiluminescence); type: biochemical; details: ratio of PARP2 IC50 to PARP1 IC50
readout_name: Selectivity PARP2/PARP1

Use the examples below as a reference point.
Qu. In one line, give reported Selectivity PARP2/PARP1 of the entry "CNC(=O)c1ccc(N2CCN(Cc3cc(-c4cccnc4)c4nc(C)c(=O)[nH]c4c3)CC2)c(F)n1" .
Ans. 224.6

Qu. In one line, give reported Selectivity PARP2/PARP1 of the entry "CNC(=O)c1ccc(N2CCN(Cc3cc(OC4CCCC4)c4nc(C)c(=O)[nH]c4c3)CC2)c(F)n1" .
Ans. 873.7

Qu. In one line, give reported Selectivity PARP2/PARP1 of the entry "CNC(=O)c1ccc(N2CCN(Cc3cc(Oc4ccc(F)cc4)c4nc(C)c(=O)[nH]c4c3)CC2)c(F)n1" .
Ans. 700.1

Qu. In one line, give reported Selectivity PARP2/PARP1 of the entry "CNC(=O)c1ccc(N2CCN(Cc3cc(OC(C)C)c4nc(C)c(=O)[nH]c4c3)CC2)c(F)n1" .
Ans. 53.2

Qu. In one line, give reported Selectivity PARP2/PARP1 of the entry "CC#Cc1cc(CN2CCN(c3ccc(C#N)cn3)CC2)cc2[nH]c(=O)c(C)nc12" .
Ans. 398.1

New cases:
Qu. In one line, give reported Selectivity PARP2/PARP1 of the entry "CC#Cc1cc(CN2CCN(c3ccc(C(=O)NC)nc3)CC2)c(F)c2[nH]c(=O)c(C)nc12" .
Ans. >1756.9

* * *

test: Pharmacokinetics in SD rats after intravenous injection or gavage; conditions: rat, plasma, po, 5 mg/kg
readout_name: Cmax (ng/mL)
Your answer should be a plain number; it is taken to be in ng/mL.

Use the examples below as a reference point.
Qu. In one line, give reported Cmax of the entry "CNC(=O)c1ccc(C2=CCN(Cc3cc(OC(F)F)c4nc(C)c(=O)[nH]c4c3)CC2)c(F)n1" .
Ans. 3630

Qu. In one line, give reported Cmax of the entry "CNC(=O)c1ccc(N2CCN(Cc3cc(-c4ccccc4)c4nc(C)c(=O)[nH]c4c3)CC2)c(F)n1" .
Ans. 719

Qu. In one line, give reported Cmax of the entry "CC#Cc1cc(CN2CC=C(c3ccc(C(=O)NC4CC4)nc3F)CC2)c(F)c2[nH]c(=O)c(C)nc12" .
Ans. 3130

Qu. In one line, give reported Cmax of the entry "CNC(=O)c1ccc(N2CCN(Cc3cc(OC(F)F)c4nc(C)c(=O)[nH]c4c3)CC2)c(F)n1" .
Ans. 5810

Qu. In one line, give reported Cmax of the entry "CC#Cc1cc(CN2CCN(c3ccc(C(=O)NC4CC4)nc3F)CC2)cc2[nH]c(=O)c(C)nc12" .
Ans. 4970

Qu. In one line, give reported Cmax of the entry "CNC(=O)c1ccc(N2CCN(Cc3cc(OC(C)C)c4nc(C)c(=O)[nH]c4c3)CC2)c(F)n1" .
Ans. 1400

Qu. In one line, give reported Cmax of the entry "Cc1nc2c(OC(F)F)cc(CN3CCN(c4ccc(C(=O)NC5CC5)nc4F)CC3)cc2[nH]c1=O" .
Ans. 2150

Qu. In one line, give reported Cmax of the entry "CNC(=O)c1ccc(N2CCN(Cc3cc(OC(F)F)c4nc(C)c(=O)[nH]c4c3)CC2)c(C)n1" .
Ans. 2580

Consider now this further molecule.
Qu. In one line, give reported Cmax of the entry "CC#Cc1cc(CN2CCN(c3ccc(C(=O)NC)nc3F)CC2)cc2[nH]c(=O)c(C)nc12" .
Ans. 2600

* * *

assay: Pharmacokinetics in mice after intravenous injection or gavage; settings: BALB/c, mouse, plasma, po, 5 mg/kg
readout_name: Cmax (ng/mL)
Your answer should be a plain number; it is taken to be in ng/mL.

Qu. In one line, give reported Cmax of the entry "CNC(=O)c1ccc(N2CCN(Cc3cc(OC(C)C)c4nc(C)c(=O)[nH]c4c3)CC2)c(F)n1" .
Ans. 1780

Qu. In one line, give reported Cmax of the entry "CNC(=O)c1ccc(N2CCN(Cc3cc(OC(F)F)c4nc(C)c(=O)[nH]c4c3)CC2)c(F)n1" .
Ans. 11500

New cases:
Qu. In one line, give reported Cmax of the entry "CC#Cc1cc(CN2CC=C(c3ccc(C(=O)NC4CC4)nc3F)CC2)c(F)c2[nH]c(=O)c(C)nc12" .
Ans. 2720

Qu. In one line, give reported Cmax of the entry "Cc1nc2c(OC(F)F)cc(CN3CC=C(c4ccc(C(=O)NC5CC5)nc4F)CC3)cc2[nH]c1=O" .
Ans. 15100

* * *

molecular target: PARP2 (Homo sapiens, UniProt Q9UGN5);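 further: PARP2 enzyme ELISA on histone-coated plates, Strep-HRP detection with chemiluminescence read-out, 10 min compound preincubation with enzyme, inhibition scaled between Max and Min signal controls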
Sequence (Q9UGN5 whole entry): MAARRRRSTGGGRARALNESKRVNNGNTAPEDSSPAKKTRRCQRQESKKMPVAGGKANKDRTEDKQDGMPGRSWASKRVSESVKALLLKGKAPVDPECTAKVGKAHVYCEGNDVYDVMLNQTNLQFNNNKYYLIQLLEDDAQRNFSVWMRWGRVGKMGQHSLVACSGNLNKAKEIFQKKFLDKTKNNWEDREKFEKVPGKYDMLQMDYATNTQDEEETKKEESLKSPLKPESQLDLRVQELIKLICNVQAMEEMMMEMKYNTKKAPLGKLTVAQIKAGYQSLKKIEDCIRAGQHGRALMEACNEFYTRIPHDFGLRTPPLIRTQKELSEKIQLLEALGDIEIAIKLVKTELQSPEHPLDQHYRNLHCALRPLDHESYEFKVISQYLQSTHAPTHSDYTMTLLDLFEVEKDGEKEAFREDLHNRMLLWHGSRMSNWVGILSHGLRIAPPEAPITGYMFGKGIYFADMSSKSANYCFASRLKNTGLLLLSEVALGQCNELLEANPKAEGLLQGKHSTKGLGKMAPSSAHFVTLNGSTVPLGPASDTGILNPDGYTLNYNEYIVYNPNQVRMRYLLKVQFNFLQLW
readout_name: IC50 (nM)
Your answer should be a plain number; it is taken to be in nM.

Use the examples below as a reference point.
Qu. In one line, give reported IC50 of the entry CNC(=O)c1ccc(N2CCN(Cc3cc(OC(F)F)c4nc(C)c(=O)[nH]c4c3)CC2)cn1 [Example 49] .
Ans. 54

Qu. In one line, give reported IC50 of the entry CNC(=O)c1ccc(N2CCN(Cc3cc(OC4CC(F)(F)C4)c4nc(C)c(=O)[nH]c4c3)CC2)c(F)n1 [Example 18] .
Ans. 93.3

Consider now this further compound.
Qu. In one line, give reported IC50 of the entry CNC(=O)c1ccc(C2=CCN(Cc3cc(OC(F)F)c4nc(C)c(=O)[nH]c4c3)CC2)cn1 [Example 44] .
Ans. 148

* * *

target: PARP1 (Homo sapiens); experiment: Inhibition of PARP1 enzyme activity (ELISA, chemiluminescence); format: biochemical; conditions: ratio of PARP2 IC50 to PARP1 IC50
Sequence (P09874 whole entry): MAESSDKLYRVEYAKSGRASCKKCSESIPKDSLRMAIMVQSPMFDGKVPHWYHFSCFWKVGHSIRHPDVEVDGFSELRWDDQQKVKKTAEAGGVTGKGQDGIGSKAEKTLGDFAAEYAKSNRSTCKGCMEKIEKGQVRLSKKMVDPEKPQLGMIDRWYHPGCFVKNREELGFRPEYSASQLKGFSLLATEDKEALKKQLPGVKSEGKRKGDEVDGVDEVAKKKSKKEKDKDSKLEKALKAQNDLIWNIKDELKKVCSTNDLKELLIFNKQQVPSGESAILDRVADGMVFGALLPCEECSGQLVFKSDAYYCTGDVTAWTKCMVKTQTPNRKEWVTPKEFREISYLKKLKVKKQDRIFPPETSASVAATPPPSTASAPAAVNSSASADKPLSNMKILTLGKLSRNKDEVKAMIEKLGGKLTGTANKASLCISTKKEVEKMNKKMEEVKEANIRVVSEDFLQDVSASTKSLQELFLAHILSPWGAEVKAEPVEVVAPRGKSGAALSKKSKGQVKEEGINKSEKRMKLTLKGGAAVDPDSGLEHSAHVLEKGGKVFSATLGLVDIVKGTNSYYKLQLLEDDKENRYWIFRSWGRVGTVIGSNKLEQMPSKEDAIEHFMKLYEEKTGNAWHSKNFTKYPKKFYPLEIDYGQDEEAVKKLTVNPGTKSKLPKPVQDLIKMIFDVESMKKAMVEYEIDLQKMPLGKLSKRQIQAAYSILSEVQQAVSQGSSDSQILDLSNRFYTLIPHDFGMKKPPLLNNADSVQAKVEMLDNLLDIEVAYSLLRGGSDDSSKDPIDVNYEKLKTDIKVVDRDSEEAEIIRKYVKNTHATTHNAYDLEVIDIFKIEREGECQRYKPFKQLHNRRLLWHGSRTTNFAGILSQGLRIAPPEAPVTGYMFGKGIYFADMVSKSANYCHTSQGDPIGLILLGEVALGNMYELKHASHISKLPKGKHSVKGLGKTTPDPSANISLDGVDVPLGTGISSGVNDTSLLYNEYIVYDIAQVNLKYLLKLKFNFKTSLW
Overview of reported Selectivity PARP2/PARP1 across a group of compounds:

Qu. In one line, give reported Selectivity PARP2/PARP1 of the entry "CNC(=O)c1ccc(N2CCN(Cc3cc(OC(F)F)c4nc(C)c(=O)[nH]c4c3)CC2)cn1" .
Ans. 17.0

Qu. In one line, give reported Selectivity PARP2/PARP1 of the entry "CNC(=O)c1ccc(N2CCN(Cc3cc(Oc4ccccc4F)c4nc(C)c(=O)[nH]c4c3)CC2)c(F)n1" .
Ans. 278.9

Qu. In one line, give reported Selectivity PARP2/PARP1 of the entry "CC#Cc1cc(CN2CC=C(c3ccc(C(=O)NC)nc3)CC2)cc2[nH]c(=O)c(C)nc12" .
Ans. 198.0

Consider now this further compound.
Qu. In one line, give reported Selectivity PARP2/PARP1 of the entry "CNC(=O)c1ccc(C2=CCN(Cc3cc(OC(F)F)c4nc(C)c(=O)[nH]c4c3)CC2)cn1" .
Ans. 184.1

* * *

experiment: Pharmacokinetics in SD rats after intravenous injection or gavage; conditions: rat, plasma, iv, 1 mg/kg
Overview of reported Cmax across a group of molecules:

Qu. In one line, give reported Cmax of the entry "CNC(=O)c1ccc(N2CCN(Cc3cc(OC(F)F)c4nc(C)c(=O)[nH]c4c3)CC2)c(C)n1" .
Ans. 1190 ng/mL

Qu. In one line, give reported Cmax of the entry "CNC(=O)c1ccc(C2=CCN(Cc3cc(OC(F)F)c4nc(C)c(=O)[nH]c4c3)CC2)c(F)n1" .
Ans. 1560 ng/mL

Qu. In one line, give reported Cmax of the entry "Cc1nc2c(OC(F)F)cc(CN3CCN(c4ccc(C(=O)NC5CC5)nc4F)CC3)cc2[nH]c1=O" .
Ans. 1410 ng/mL

Qu. In one line, give reported Cmax of the entry "CC#Cc1cc(CN2CC=C(c3ccc(C(=O)NC4CC4)nc3F)CC2)c(F)c2[nH]c(=O)c(C)nc12" .
Ans. 1720 ng/mL

Qu. In one line, give reported Cmax of the entry "CC#Cc1cc(CN2CCN(c3ccc(C(=O)NC4CC4)nc3F)CC2)cc2[nH]c(=O)c(C)nc12" .
Ans. 2230 ng/mL

New cases:
Qu. In one line, give reported Cmax of the entry "CC#Cc1cc(CN2CCN(c3ccc(C(=O)NC)nc3F)CC2)cc2[nH]c(=O)c(C)nc12" .
Ans. 1170 ng/mL

Qu. In one line, give reported Cmax of the entry "CNC(=O)c1ccc(N2CCN(Cc3cc(-c4ccccc4)c4nc(C)c(=O)[nH]c4c3)CC2)c(F)n1" .
Ans. 534 ng/mL

Qu. In one line, give reported Cmax of the entry "CNC(=O)c1ccc(N2CCN(Cc3cc(OC(C)C)c4nc(C)c(=O)[nH]c4c3)CC2)c(F)n1" .
Ans. 653 ng/mL

Qu. In one line, give reported Cmax of the entry "CNC(=O)c1ccc(N2CCN(Cc3cc(OC(F)F)c4nc(C)c(=O)[nH]c4c3)CC2)c(F)n1" .
Ans. 2730 ng/mL
